experiment: Serum biochemistry assay in Huh7 xenograft mice; assay type: in vivo, NOD-SCID mice; conditions: serum, 30 mg/kg i.p., twice a week
Metric: BUN (mg/dL)
Answer with a number only, understood to be in mg/dL.

In: Suppose we examine the compound CNC(=O)c1cc(Oc2ccc(NC(=O)Nc3ccc(Cl)c(C(F)(F)F)c3)cc2)ccn1 [Sorafenib, sorafenib, reference compound] ; what BUN value has been reported?
Out: 23

In: Find the recorded BUN belonging to CCCCCC[C@H]1CC[C@H](c2ccc(NC(=S)NC[C@@H]3[C@@H](O)[C@@H](O)[C@H]4[C@H](O)CCCN43)cc2)CC1 [ACK901] and report it.
Out: 21.87

In: Any idea what its BUN is? The compound is CCC[C@H]1CC[C@H](c2ccc(C(=O)NC[C@@H]3[C@@H](O)[C@@H](O)[C@H]4[C@H](O)CCCN43)cc2)CC1 [ACK902]
Out: 23.87

In: Quick check: BUN of CCC[C@H]1CC[C@H](c2ccc(NC(=S)NC[C@@H]3[C@@H](O)[C@@H](O)[C@H]4[C@H](O)CCCN43)cc2)CC1 [ACK900] ?
Out: 22.37

Where these numbers come from: patent US20240190866A1
